Where do the numbers come from? From patent US20210188972A1.

In this section we review reported Octet pairing response values for a set of binders.
# Assayed System: T1, Human PTGFRN-ECD (extracellular domain; amino-acid 26 to amino-acid Y at 832), His-tag protein (human, UniProt Q9P2B2 26-832)
# T1 construct: range 26-832; Expressed in Hek-293 cells, purified on a nickel column; also called recombinant PTGFRN; not shown: His-tag
# T1 sequence (looked up): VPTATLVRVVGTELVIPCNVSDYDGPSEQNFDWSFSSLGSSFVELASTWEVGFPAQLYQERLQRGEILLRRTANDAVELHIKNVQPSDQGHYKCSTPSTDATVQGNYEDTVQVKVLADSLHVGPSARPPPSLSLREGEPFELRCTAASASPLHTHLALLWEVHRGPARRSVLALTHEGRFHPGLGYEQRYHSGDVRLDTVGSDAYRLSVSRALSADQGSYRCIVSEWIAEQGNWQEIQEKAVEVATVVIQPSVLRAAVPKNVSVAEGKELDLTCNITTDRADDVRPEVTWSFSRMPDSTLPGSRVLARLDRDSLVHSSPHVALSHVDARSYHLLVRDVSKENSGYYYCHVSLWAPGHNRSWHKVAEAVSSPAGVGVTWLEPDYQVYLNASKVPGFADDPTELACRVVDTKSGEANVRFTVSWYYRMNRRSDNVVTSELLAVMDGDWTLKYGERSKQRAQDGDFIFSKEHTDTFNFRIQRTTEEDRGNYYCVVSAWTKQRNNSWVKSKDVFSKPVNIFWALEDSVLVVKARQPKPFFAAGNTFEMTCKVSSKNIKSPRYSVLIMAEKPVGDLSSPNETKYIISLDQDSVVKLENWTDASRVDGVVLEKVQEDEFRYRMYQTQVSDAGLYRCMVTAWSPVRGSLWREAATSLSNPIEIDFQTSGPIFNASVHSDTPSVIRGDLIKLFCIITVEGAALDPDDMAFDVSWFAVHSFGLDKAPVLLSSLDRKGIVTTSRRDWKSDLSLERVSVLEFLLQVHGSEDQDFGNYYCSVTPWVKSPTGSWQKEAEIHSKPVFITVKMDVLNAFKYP
# Test: Octet Red96 pairing (binning matrix) on PTGFRN-ECD; capture Ab (1st loading Ab): 2B12
# print the numeric value only

Before answering, review these 3 worked examples.
10D9 (antibody, V domains shown, Mouse hybridoma mAb) VH: DVQLQESGPGLVKPSQSLSLTCSVTGCSITSGYDWNWIRQFPGNKLEWMGYINYDGNSNYIPSLKNRVSITRDTSKNQFFLKLNSVTTEDTATYYCARSDGYYWYFDVWGTGTTVTVSS VL: DIKMTQSPSSMYASLGERVTITCKASQDIKSYLSWYQQKPWKSPKTLIYYATSLADGVPSRFSASGSGQDYSLTISSLESDDTATYYCLQHAERPLTFGAGTKLELK	0.18
6F6 (antibody, V domains shown, Mouse hybridoma mAb) VH: QVQLQQSGAELVKPGASVKVSCKASGYTFTTYWMHWVKQRPGQGLEWIGRIHPSDSDTNYNQKFKGKATLTLDKSSSTAYMQLSSLTSEDSAVYYCAMSLYYTMDYWGQGTSVTVSS VL: DIQMTQSPSSLSASLGGKVTITCKASQDIKKYIAWYQHKPGKGPRLLIHYTSTLQPGIPSRFSGSGSGRDYSFSISNLEPEDIATYYCLQYDNLLYTFGGGTKLEIK	0.124
1E2 (antibody, V domains shown, Mouse hybridoma mAb) VH: DVQLQESGPGLVKPSQSLSLTCSVTDYSITSGYYWNWIRQFPGNKLEWMGYISYDGSNNYNPSLKNRLSITRDTSKNQFFLKLNSVTPEDTATYYCARGWDYCFDYWGQGATLTVSS VL: DIQMTQTTSSLSASLGDRVTISCSASQGISNYLNWYQQKPDGTVKLLIYYTSGLHSGVPSRFSGSGSGTDYSLTISNLEPEDIATYYCQQYSQLPWTFGGGTKLEIK	0.23

Read the next record carefully.
Q. Field request: Octet pairing response | item: 3E10 (antibody, V domains shown) VH: EVHLVESGGDLVKPGGSLKLSCAASGFTFSSYGMSWVRQTPDKRLEWVASISSGGSHTYYPDRVKGRFTISRDNAKNTLYLQMSSLKSEDTAMYYCARHPSYYGSSLYCFDYWGQGTTLTVSS VL: DIQMTQTTSSLSASLGDRVTISCRASQDISNYLNWYQQKPDGTVKLLIYYTSRLHSGVPSRFSGSGSGTDFSLTISNLEQEDVATYFCQQGSTLPWTFGGGTKLEIK
A. 0.251
